These measurements were taken from patent US20200121803A1.

Molecular target: T1, human CD98 on the cell surface (human)
T1 chain: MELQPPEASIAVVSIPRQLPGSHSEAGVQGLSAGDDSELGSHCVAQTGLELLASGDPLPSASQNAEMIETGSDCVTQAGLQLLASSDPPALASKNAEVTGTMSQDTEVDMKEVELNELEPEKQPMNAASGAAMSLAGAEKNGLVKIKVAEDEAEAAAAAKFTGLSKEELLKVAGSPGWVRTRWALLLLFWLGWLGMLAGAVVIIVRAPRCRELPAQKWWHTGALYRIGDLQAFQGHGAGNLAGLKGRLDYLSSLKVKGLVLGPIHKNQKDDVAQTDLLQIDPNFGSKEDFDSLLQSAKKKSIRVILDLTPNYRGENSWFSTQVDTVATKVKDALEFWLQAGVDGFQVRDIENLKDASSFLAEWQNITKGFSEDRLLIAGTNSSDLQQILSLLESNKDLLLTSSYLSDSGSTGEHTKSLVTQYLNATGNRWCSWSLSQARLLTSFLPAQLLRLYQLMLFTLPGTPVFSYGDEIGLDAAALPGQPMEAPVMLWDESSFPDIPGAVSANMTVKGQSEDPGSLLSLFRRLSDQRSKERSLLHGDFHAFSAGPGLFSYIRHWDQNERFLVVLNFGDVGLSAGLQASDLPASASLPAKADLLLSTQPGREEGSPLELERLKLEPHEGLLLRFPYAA
Test: cell-based or functional assay
Endpoint Label: ADC potency, IC50 (nM), H146 (SCLC) growth inhibition
# unit: nM | format: bare number

Examples with their reported ADC potency, IC50 (nM), H146 (SCLC) growth inhibition follow.
ChAb13-CZ (other, synthon CZ on reduced interchain Cys of the constant regions (sites not numbered)) VH: QVQLKESGPGLVQPSQTLSLTCTVSGFSLSSYGVIWVRQPPGKGLEWMGIIWANGNTNYNSALKSRLSISRDTSKSQVYLKMNSLQTEDTATYYCARHYYDGTHYYGYFDYWGQGVMVTVSS VL: DTVMTQTPSSQAVSAGEKVTMSCKSSQSLLYSENKKKYLAWYQQKPGQSPKLLIYWASTRESGVPDRFIGSGSGTDFTLTISSVQAEDLAVYYCQQYYNFPYTFGAGTKLELK	0.115
ChAb3-CZ (other, synthon CZ on reduced interchain Cys of the constant regions (sites not numbered)) VH: EVKLVESGGGLVQPGNSLRLSCATSGFTFIDYYMSWVRQSPGKALEWLGFIRNKANGYTTEYSASVKGRFTISRDNSQSILYLQMDTLRAEDSATYYCTRDRPAWFVYWGQGTLVTVSA VL: DIVMSQSPSSLAVSVGEKVTMSCKSSQSLLYSSNQKNYLAWYQQKPGQSPKLLIYWASTRESGVPDRFTGSGSGTDFTLTFSSVRAEDLAVYYCQQYYSYPYTFGGGTKLEIK	0.255
ChAb10-CZ (other, synthon CZ on reduced interchain Cys of the constant regions (sites not numbered)) VH: EVQLVESGGGLVQPGRSLKLSCAASGFTFSDYAMAWVRQAPKKSLEWVATIIYDGRGTYCRDSVKGRFTISRDNAKSTLYLQMDSLRSEDTATYYCARQGDGTYHYWGYFDYWGQGVMVTVSS VL: DIVMTQSPSSLAVSAGETVTINCKSSQSLLSSGNQKNYLAWYQQKPGQSPKLLIYWASTRQSGVPDRFIGSGSGTDFTLTISSVQAEDLAIYYCQQYYDTPYTFGAGTKVDLK	0.209

Input: Can you share its ADC potency, IC50 (nM), H146 (SCLC) growth inhibition? I mean this binder: ChAb8-CZ (other, synthon CZ on reduced interchain Cys of the constant regions (sites not numbered)) VH: EVQLVESGGGLVQPGRSLKLSCAASGFTFSDYAMAWVRQAPKKGLEWVASIIYDGRGTYYRDSVKGRFTISRDNAKSTLYLQMDSLRSEDTATYYCARQGDGTYYYWGYFDYWGQGVMVTVSS VL: DIVMTQSPSSLAVSAGETVTINCKSSQSLLSSGNQKNYLAWYQQKPGQSPKLLIYWASTRQSGVPDRFIGSGSGTDFTLTINSVQAEDLAIYYCQQYYDTPYTFGAGTKLELK
Output: 0.094
